Origin of the recorded values: ChEMBL document CHEMBL1147746

# System: Human immunodeficiency virus 1
# ASSAY NOTES: Antiviral activity against HIV1 K103N mutant using HeLa MAGI assay
# Type: functional, organism-based
# CONDITION DESCRIPTION: Human immunodeficiency virus 1, K103N
pIC50: −log10 of the molar value.
Quick reference: pIC50 of the listed items.

SUBSTANCE SMILES: Cc1cc(C#N)cc(C(=O)c2cc(Cl)ccc2OCC(=O)Nc2ccc(S(N)(=O)=O)nc2C)c1
pIC50: 8.22

SUBSTANCE SMILES: COc1ccc(NC(=O)COc2ccc(Cl)cc2C(=O)c2cc(F)cc(F)c2)cn1
pIC50: 7.14

SUBSTANCE SMILES: Cc1cc(S(N)(=O)=O)ccc1NC(=O)COc1ccc(Cl)cc1C(=O)c1cc(Cl)cc(Br)c1
pIC50: 8.21

SUBSTANCE SMILES: Cc1cc(NCCCn2ccnc2)ccc1NC(=O)COc1ccc(Cl)cc1C(=O)c1cc(F)cc(F)c1
pIC50: 6.80

SUBSTANCE SMILES: Cc1cc(N2CC[S+]([O-])CC2)ccc1NC(=O)COc1ccc(Cl)cc1C(=O)c1ccccc1C#N
pIC50: 6.81

SUBSTANCE SMILES: Cc1cc(S(N)(=O)=O)ccc1NC(=O)COc1ccc(Cl)cc1C(=O)c1cc(Br)cc(C(F)(F)F)c1
pIC50: 7.03

SUBSTANCE SMILES: Cc1cc(OCCCNC(N)=O)ccc1NC(=O)COc1ccc(Cl)cc1C(=O)c1cc(F)cc(C(F)(F)F)c1
pIC50: 8.40

SUBSTANCE SMILES: Cc1cc(C)cc(C(=O)c2cc(Cl)ccc2OCC(=O)Nc2ccc(S(N)(=O)=O)cc2C)c1
pIC50: 8.48

SUBSTANCE SMILES: Cc1cc(NCCCN2CCCC2)ccc1NC(=O)COc1ccc(Cl)cc1C(=O)c1cc(F)cc(F)c1
pIC50: 6.96
